// data source = paper PMC11249646

Biological target: CIB1 and αIIb interaction (CIB1-GST : F-αIIb peptide) (Homo sapiens)
Construct: made in house; host or cells: BL-21 plus RIL cells (E. coli)
Sequence (Q99828 1-191): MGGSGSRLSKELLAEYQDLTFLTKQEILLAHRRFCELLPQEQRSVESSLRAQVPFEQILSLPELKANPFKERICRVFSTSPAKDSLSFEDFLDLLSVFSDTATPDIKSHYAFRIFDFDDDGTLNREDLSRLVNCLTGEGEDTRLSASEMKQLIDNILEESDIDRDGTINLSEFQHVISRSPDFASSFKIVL
Assay: FP assay, 1536-well qHTS format (primary and confirmatory screen)
Type: binding
Conditions: qHTS primary screen of LOPAC/NPACT libraries; negative = inhibition
measurementKind: Efficacy (%)
// note: answer is a bare numeric in %

Known results for compounds:
C/C(=C\c1ccc(C(=O)O)cc1)c1ccc2c(c1)C(C)(C)CCC2(C)C; -10
CCCN1C[C@H](CSC)C[C@@H]2c3cccc4[nH]cc(c34)C[C@H]21; -29
CCCCCCC/C=C\CCCCCCCCC(=O)O; -27
O=c1ccc2ccc(O)c(O)c2o1; -13

// returns reported Efficacy (%) for input Cc1cc(N2CCOCC2)cc2[nH]c(-c3c(NC[C@@H](O)c4cccc(Cl)c4)cc[nH]c3=O)nc12 -28

* * *

Target: CIB1 and αIIb interaction (GST-CIB1 : F-αIIb peptide) (Homo sapiens, UniProt Q99828)
Construct: made in house; host or cells: BL-21 plus RIL cells (E. coli)
Sequence (Q99828 1-191): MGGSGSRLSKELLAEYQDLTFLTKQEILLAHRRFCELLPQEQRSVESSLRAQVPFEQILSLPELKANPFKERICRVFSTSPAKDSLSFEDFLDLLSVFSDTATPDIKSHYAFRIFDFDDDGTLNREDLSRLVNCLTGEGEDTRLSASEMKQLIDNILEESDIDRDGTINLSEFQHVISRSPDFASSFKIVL
Assay: FP assay, 384-well format (screen)
Assay type: binding
Design: concentration or dose not given beside the values
Conditions: F-αIIb peptide
measurementKind: 384-well SCREEN Efficacy (%)
Kindly answer with a numeric value in %, unit omitted.

Look over these answered cases.
Cn1sc(=O)n(Cc2ccccc2)c1=O; 90
COc1cc(C(=O)NS(=O)(=O)c2ccccc2C)ccc1Cc1cn(C)c2ccc(NC(=O)OC3CCCC3)cc12; 38
CCc1oc2ccccc2c1C(=O)c1cc(I)c(O)c(I)c1; 31

Record request: 384-well SCREEN Efficacy (%) value, item COc1cccc(-c2csc(NC(=O)c3ccncc3NS(=O)(=O)c3ccc(C)cc3)n2)c1 52

* * *

Target: CIB1 and αIIb interaction (CIB1-GST : F-αIIb peptide) (Homo sapiens)
Construct: made in house; host or cells: BL-21 plus RIL cells (E. coli)
Sequence (Q99828 1-191): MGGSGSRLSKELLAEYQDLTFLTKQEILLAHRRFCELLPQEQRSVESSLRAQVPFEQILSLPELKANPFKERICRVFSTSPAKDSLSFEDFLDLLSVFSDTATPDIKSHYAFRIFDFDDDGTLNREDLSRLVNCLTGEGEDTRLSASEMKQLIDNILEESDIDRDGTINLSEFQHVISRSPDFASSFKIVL
Experiment: FP assay, 1536-well qHTS format (primary and confirmatory screen)
Assay type: binding
Conditions: qHTS primary screen hits, Table S2; read-out: IC50
Catalogue of pIC50 values
Answer as the number alone; pIC50 is minus log10 of concentration in mol/L.

// below: answered compounds
Cc1cc2c(cc1C1(c3ccc(C(=O)O)cc3)CC1)C(C)(C)CCC2(C)C; 4.10
COc1cccc2nc(-c3cccs3)nc(NN3C(=O)C=C(C)C3=O)c12; 5.52
CC(C)c1ccc(NC(=S)N/N=C2\C(=O)Nc3ccccc32)cc1.O=C(O)C(F)(F)F; 5.00

Look up pIC50: CN(C)[C@H]1CCN(c2cccc(Nc3nn4c(=O)c5ccccc5nc4s3)c2)C1.O=C(O)C(F)(F)F 4.48

Follow-up entry: Cc1ccccc1C(=O)c1no[n+]([O-])c1C(=O)c1ccccc1C.O=C(O)C(F)(F)F 4.50

Could you do the same for Oc1cccc(C2=C3C=CC(=N3)C(c3cccc(O)c3)=C3C=CC(=N3)C(c3cccc(O)c3)=C3CCC(=N3)C(c3cccc(O)c3)=C3C=CC2=N3)c1 , please? 4.30

And what about the compound COc1cccc2c1C(=O)c1c(O)c3c(c(O)c1C2=O)C[C@@](O)(C(=O)CO)C[C@@H]3O[C@H]1C[C@H](N)[C@H](O[C@@H]2CCCCO2)[C@H](C)O1 ? 5.11

* * *

target: GST-CIB1 : F-scrambled peptide (Homo sapiens, UniProt Q99828); construct: made in house; host or cells: BL-21 plus RIL cells (E. coli); assay: FP scrambled-peptide counter screen, 1536-well format; format: binding; details: counterscreen
Binarize Efficacy (%) (counterscreen) at -60%; below is True, at or above is False.

Below, 8 molecules whose answers are already recorded.
CCNC(=O)c1ccc(-c2ccc3ncnc(N4CCOCC4)c3c2)o1.O=C(O)C(F)(F)F [NCGC00238377-01]; False
O=C(O)C(F)(F)F.O=C1Nc2ccccc2/C1=N/NC(=S)Nc1ccccc1 [NCGC00229542-01]; False
Cc1coc2c1C(=O)C(=O)c1c-2ccc2c(C)cccc12 [NCGC00247624-03]; True
CN1C[C@H](CNC(=O)OCc2ccccc2)C[C@@H]2c3cccc4c3c(cn4C)C[C@H]21 [NCGC00017257-10]; False
CSc1cc2c(s1)c1cnn(Cc3cccc(N)c3)c(=O)c1n2C.O=C(O)C(F)(F)F [NCGC00188341-01]; False
Cc1cc(/N=N/c2ccc(S(=O)(=O)Nc3ccccn3)cc2)c(N)cc1O [NCGC00356068-01]; False
C=CC1=C(C)c2cc3[nH]c(cc4nc(cc5[nH]c(cc1n2)c(C)c5CCC(=O)O)C(CCC(=O)O)=C4C)c(C)c3C=C [NCGC00015844-07]; True
Cc1ccc(C)n1-c1sccc1C(=O)O [NCGC00253437-01]; False

Now take the following molecule into account.
# check: Efficacy (%) (counterscreen) < -60% for C[C@H](Cc1ccc(O)c(O)c1)[C@@H](C)Cc1ccc(O)c(O)c1 [NCGC00094201-01] True

* * *

target: CIB1 and αIIb interaction (CIB1-GST : F-αIIb peptide) (Homo sapiens, UniProt Q99828); construct: made in house; host or cells: BL-21 plus RIL cells (E. coli); assay: FP assay, 1536-well qHTS format (primary and confirmatory screen); format: binding; settings: qHTS primary screen of LOPAC/NPACT libraries; negative sign = inhibitory curve
Recorded Curve Class, one value per entry.

Some solved entries appear below for comparison.
COC(=O)C1C(O)CCC2CN3CCc4c([nH]c5ccccc45)C3CC21 (centres unmarked) [NCGC00015878-08]; -2.2
CCOC(=O)C1=C(C)NC(C)=C(C(=O)OC)C1c1cccc(Cl)c1Cl (centres unmarked) [NCGC00015455-08]; -2.2
C=CC(=O)Nc1cccc(Sc2nc(Nc3ccc(N4CCN(C)CC4)cc3)ncc2Cl)c1 [NCGC00346497-02]; -2.4
CCCCCCCCCCC/C=C\C(C)(C)/C=C\CCCC(=O)O [NCGC00015371-07]; -2.4
Cc1cc(-c2cc(O)ccc2Cl)cc2nnc(Nc3ccc(OCCN4CCCC4)cc3)nc12.Cl [NCGC00378690-01]; -2.4
Cc1cc(N2CCOCC2)cc2[nH]c(-c3c(NC[C@@H](O)c4cccc(Cl)c4)cc[nH]c3=O)nc12 [NCGC00346460-05]; -1.4

// query Curve Class value for entry O=C1c2c(O)cc(O)cc2OC(c2ccc(O)c(O)c2)C1O (centres unmarked) [NCGC00261882-01] -1.2

Also Oc1ccc2c3c1O[C@H]1c4[nH]c5c(N=C=S)cccc5c4C[C@@]4(O)[C@@H](C2)N(CC2CC2)CC[C@]314 [NCGC00485321-01] , if possible. -2.4

* * *

The following molecules are shown together with reported pIC50 values.
Target: CIB1 and αIIb interaction (GST-CIB1 : F-αIIb peptide) (Homo sapiens, UniProt Q99828)
Construct: made in house; host or cells: BL-21 plus RIL cells (E. coli)
Sequence (Q99828 1-191): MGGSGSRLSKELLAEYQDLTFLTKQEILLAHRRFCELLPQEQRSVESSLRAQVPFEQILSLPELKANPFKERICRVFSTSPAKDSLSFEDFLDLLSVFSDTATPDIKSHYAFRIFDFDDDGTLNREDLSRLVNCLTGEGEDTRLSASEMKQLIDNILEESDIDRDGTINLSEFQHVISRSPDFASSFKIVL
Experiment: FP assay, 384-well format (screen)
Assay type: binding
Details: F-αIIb peptide; read-out: 384-well SCREEN IC50
Lab note — pIC50 values are minus log10 of concentrations in M.

NS(=O)(=O)c1cccc2c1c([N+](=O)[O-])cc1nc(O)c([O-])nc12.[Na+]; 5.04

Fill in the blank: the reported pIC50 of O=C1C=CC(=O)N1c1cccc(Br)c1 is ____. 5.00
